# Read-out: Bcl-2 (BAX) gene, BAX (gene 581)
# Assay Notes: LTEA_HepaRG_BAX: Life Technologies and Expression Analysis (LTEA) Assay for Bcl-2 (BAX) gene using HepaRG (AID 2283470)
# Condition Description: mRNA level, 48 h; actives raise or lower the signal
Active and inactive are the calls of the source. How the source made its calls: active means hit-call score of the fitted dose curve at least 0.9, where 1 is the maximum; inactive means score below 0.9.
Measure: outcome

# count of solved cases: 5
COCCOc1cc2cc(C(=O)NC3CCN(C(C)C)CC3)n(CC(=O)Nc3ccc(Cl)cn3)c2cn1 : inactive
CC(C)CCCCCCOC(=O)c1ccc(C(=O)OCCCCCCC(C)C)c(C(=O)OCCCCCCC(C)C)c1 : inactive
COC(=O)c1c(Cl)c(Cl)c(C(=O)OC)c(Cl)c1Cl : inactive
CC(C)(O)c1coc(S(=O)(=O)NC(=O)Nc2c3c(cc4c2CCC4)CCC3)c1 : inactive
Cn1c(=O)cc(Oc2ccc(F)cc2F)c2cnc(NCC(C)(C)O)nc21 : inactive

Below: the item to evaluate.
outcome for CCOCCO is inactive
